Assay: Normal rat biodistribution
Type: in vivo
Settings: 30 min post-injection, i.v., male Wistar rats, Mean±SD n=3
I'd be grateful if you could share measured % ID Blood for these entries.
Response body: numeric value in % ID, unit text excluded.

Lab note: NCCCCCNS(=O)(=O)c1ccc(C(=O)NCCCNC(=O)c2ccc(NN)nc2)cc1 gave % ID Blood of 3.86

So for CC(=NO)C(C)(C)NCCN(CCNC(=O)C1CCC(CNC(=O)c2ccc(S(=O)(=O)NCCCCCN)cc2)CC1)CCNC(C)(C)C(C)=NO (stereo not shown) , the logged % ID Blood turned out to be 5.7

# molecule CC(CNCc1ccccc1O)(CNCc1ccccc1O)CNC(=O)c1ccc(S(=O)(=O)NCCCCCN)cc1 ; its % ID Blood = 2.12

Entry CC(=NO)C(C)(C)NCCN(CCNC(=O)c1ccc(S(=O)(=O)NCCCCCN)cc1)CCNC(C)(C)C(C)=NO — recorded % ID Blood = 2.20

###

Tested on: clots induced in rat inferior vena cava
Experiment: Incorporation into clots induced in a rat model (rat inferior vena cava model)
Assay type: in vivo
Details: rat IVC model, compound injected 5 min post-induction, clot removed after 60 min
Exam item: assign Met to entries whose % ID/g (clot uptake) is below 0.2 % ID/g and Not met to entries at or above 0.2 % ID/g. Note that a value of exactly 0.2 % ID/g receives Not met.

QUERY: Given CC(=NO)C(C)(C)NCC(C)(CNC(=O)CCCCCN)CNC(C)(C)C(C)=NO (stereo not shown) , is recorded % ID/g (clot uptake) strictly lower than 0.2 % ID/g?
RESULT: Met

QUERY: Report whether reported % ID/g (clot uptake) is lower than 0.2 % ID/g (strictly) for CC(=NO)C(C)(C)NCC(C)(CNC(=O)c1ccc(S(=O)(=O)NCCCCCN)cc1)CNC(C)(C)C(C)=NO (stereo not shown)
RESULT: Met

QUERY: # TODO verify % ID/g (clot uptake) < 0.2 % ID/g strictly for this molecule: CC(=NO)C(C)(C)NCC(C)(CNC(=O)C1CCC(CNC(=O)c2ccc(S(=O)(=O)NCCCCCN)cc2)CC1)CNC(C)(C)C(C)=NO (stereo not shown)
RESULT: Met

QUERY: State whether 0.2 % ID/g exceeds % ID/g (clot uptake) recorded for NCCCCCNS(=O)(=O)c1ccc(C(=O)NCCCNC(=O)c2ccc(NN)nc2)cc1 .
RESULT: Not met

QUERY: Consider CC(CNCc1ccccc1O)(CNCc1ccccc1O)CNC(=O)c1ccc(S(=O)(=O)NCCCCCN)cc1 . Does its % ID/g (clot uptake) lie strictly below 0.2 % ID/g?
RESULT: Not met

QUERY: Answer whether the molecule CC(=NO)C(C)(C)NCCN(CCNC(=O)c1ccc(S(=O)(=O)NCCCCCN)cc1)CCNC(C)(C)C(C)=NO has % ID/g (clot uptake) strictly less than 0.2 % ID/g
RESULT: Not met

QUERY: I'd appreciate it if you could check whether CC(=NO)C(C)(C)NCCN(CCNC(=O)C1CCC(CNC(=O)c2ccc(S(=O)(=O)NCCCCCN)cc2)CC1)CCNC(C)(C)C(C)=NO (stereo not shown) has % ID/g (clot uptake) smaller than 0.2 % ID/g.
RESULT: Not met

###

Molecular target: Factor XIIIa (Homo sapiens, UniProt P00488)
Construct: Factor XIII is transformed into its active form Factor XIIIa by thrombin in the presence of calcium ions; from tissue; host or cells: human plasma
Sequence (P00488 39-732 limits assumed): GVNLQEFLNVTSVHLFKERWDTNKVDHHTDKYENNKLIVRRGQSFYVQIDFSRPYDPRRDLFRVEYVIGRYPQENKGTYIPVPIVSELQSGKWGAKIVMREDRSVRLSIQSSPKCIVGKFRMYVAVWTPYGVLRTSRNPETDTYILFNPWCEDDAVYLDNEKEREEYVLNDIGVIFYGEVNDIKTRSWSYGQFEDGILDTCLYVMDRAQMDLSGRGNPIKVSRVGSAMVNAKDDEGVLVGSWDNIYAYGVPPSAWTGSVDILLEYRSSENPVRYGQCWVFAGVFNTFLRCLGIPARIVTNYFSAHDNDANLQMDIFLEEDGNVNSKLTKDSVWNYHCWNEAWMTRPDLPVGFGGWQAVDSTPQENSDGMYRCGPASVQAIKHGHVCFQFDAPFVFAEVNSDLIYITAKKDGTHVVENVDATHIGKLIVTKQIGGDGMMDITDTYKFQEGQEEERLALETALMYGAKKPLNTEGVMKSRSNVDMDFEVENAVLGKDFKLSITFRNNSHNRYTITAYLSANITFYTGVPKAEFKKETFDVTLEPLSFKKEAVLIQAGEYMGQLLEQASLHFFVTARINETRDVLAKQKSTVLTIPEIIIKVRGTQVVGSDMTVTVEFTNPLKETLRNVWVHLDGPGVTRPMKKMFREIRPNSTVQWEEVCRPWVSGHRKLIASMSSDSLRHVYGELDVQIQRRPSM
Test: Factor XIIIa dependency of incorporation (dimethylcasein uptake, normal vs Factor XIII deficient plasma)
Type: biochemical
Conditions: 1 KBq/ml, 60 minutes; uptake in normal plasma minus Factor XIII deficient plasma
measuredQuantity: % specific DMC casein uptake (%)
Report the value in % with no unit label.

In plain terms, CC(=NO)C(C)(C)NCC(C)(CNC(=O)CCCCCN)CNC(C)(C)C(C)=NO (stereo not shown) has a documented % specific DMC casein uptake of 2

Sample CC(=O)SCC(=O)NCC(=O)NCC(=O)NCC(=O)NCCCNC(=O)c1ccc(S(=O)(=O)NCCCCCN)cc1 ; % specific DMC casein uptake observed: 24.5

Reported % specific DMC casein uptake of CC(=NO)C(C)(C)NCC(C)(CNC(=O)[C@@H](CO)NC(=O)[C@@H](CO)NC(=O)[C@@H](CO)NC(=O)c1ccc(S(=O)(=O)NCCCCCN)cc1)CNC(C)(C)C(C)=NO (stereo partly shown) : 6

For CC(=NO)C(C)(C)NCC(C)(CNC(=O)c1ccc(NC(=O)CCCCCN)cc1)CNC(C)(C)C(C)=NO (stereo not shown) the molecule record lists % specific DMC casein uptake as 13

The molecule listed as NCCCCCNS(=O)(=O)c1ccc(C(=O)NCCCNC(=O)c2ccc(NN)nc2)cc1 has a reported % specific DMC casein uptake of 22.5

What the record says about CC(=NO)C(C)(C)NCCN(CCNC(=O)c1ccc(S(=O)(=O)NCCCCCN)cc1)CCNC(C)(C)C(C)=NO : % specific DMC casein uptake is 1

Entry CC(CNCc1ccccc1O)(CNCc1ccccc1O)CNC(=O)c1ccc(S(=O)(=O)NCCCCCN)cc1 — recorded % specific DMC casein uptake = 26

Entry CC(=NO)C(C)(C)NCCN(CCNC(=O)C1CCC(CNC(=O)c2ccc(S(=O)(=O)NCCCCCN)cc2)CC1)CCNC(C)(C)C(C)=NO (stereo not shown) , % specific DMC casein uptake reported as 22.5

Given item CC(=NO)C(C)(C)NCC(C)(CNC(=O)c1ccc(S(=O)(=O)NCCCCCN)cc1)CNC(C)(C)C(C)=NO (stereo not shown) , the value recorded as its % specific DMC casein uptake is 40

For reference, reported % specific DMC casein uptake for CC(=NO)C(C)(C)NCC(C)(CNC(=O)[C@@H](Cc1ccccc1)NC(=O)CCCCCN)CNC(C)(C)C(C)=NO (stereo partly shown) stands at 10

Short answer for CC(=NO)C(C)(C)NCC(C)(CNC(=O)c1ccc(S(=O)(=O)NCCSCCN)cc1)CNC(C)(C)C(C)=NO (stereo not shown) : % specific DMC casein uptake was 29

% specific DMC casein uptake reported for this molecule CC(=NO)C(C)(C)NCC(C)(CNC(=O)N1CCN(CNC(=O)c2ccc(S(=O)(=O)NCCCCCN)cc2)CC1)CNC(C)(C)C(C)=NO (stereo not shown) : 24

According to the records, this molecule CC(=NO)C(C)(C)NCC(C)(CNC(=O)C1CCC(CNC(=O)c2ccc(S(=O)(=O)NCCCCCN)cc2)CC1)CNC(C)(C)C(C)=NO (stereo not shown) displays % specific DMC casein uptake of 45

###

Assay: Normal rat biodistribution
Type: in vivo
Conditions: 15 min post-injection, i.v., male Wistar rats, Mean±SD n=3
For each entry below, report its % ID Urine value.
Entry rule: numbers only, all in % ID.

Briefly, % ID Urine measured for CC(CNCc1ccccc1O)(CNCc1ccccc1O)CNC(=O)c1ccc(S(=O)(=O)NCCCCCN)cc1 [Compound 25] : 4.62

Looking up CC(=NO)C(C)(C)NCC(C)(CNC(=O)C1CCC(CNC(=O)c2ccc(S(=O)(=O)NCCCCCN)cc2)CC1)CNC(C)(C)C(C)=NO (centres unmarked) [Compound 8] , I found its % ID Urine recorded as 6.23

Short answer for CC(=NO)C(C)(C)NCCN(CCNC(=O)C1CCC(CNC(=O)c2ccc(S(=O)(=O)NCCCCCN)cc2)CC1)CCNC(C)(C)C(C)=NO (centres unmarked) [Compound 17] : % ID Urine was 30.1

% ID Urine reading for CC(=NO)C(C)(C)NCC(C)(CNC(=O)c1ccc(S(=O)(=O)NCCCCCN)cc1)CNC(C)(C)C(C)=NO (centres unmarked) [Compound 3] : 5.01

Query NCCCCCNS(=O)(=O)c1ccc(C(=O)NCCCNC(=O)c2ccc(NN)nc2)cc1 [Compound 24] yields % ID Urine of 8.64
